# TGI per entry
# System: SK-OV-3 ovarian
# protocolDescription: NCI tumour cell line growth inhibition, 48 h
readoutKind: TGI

compound	result
Cn1cncc1[C@@](N)(c1ccc(Cl)cc1)c1ccc2c(c1)c(-c1cccc(Cl)c1)cc(=O)n2C	21.2 µM
O=[N+]([O-])C(Cl)C(Cl)C(Cl)=C(Cl)Cl (configuration not stated)	> 100 µM
Cc1cc(NS(=O)(=O)c2ccc(N=Nc3cc(N=Nc4ccc(S(=O)(=O)Nc5cc(C)nc(C)n5)cc4)c4c(NC(=O)C(Cl)Cl)cccc4c3OC(=O)C(Cl)Cl)cc2)nc(C)n1 (tested in a mixture with another compound)	> 100 µM
COC(OC)C1OC(CO)C(n2cc(C)c(=O)[nH]c2=O)C1O (configuration not stated)	> 100 µM
CC(C)/C(Cl)=N\OC(=O)Nc1cccc(F)c1	35.2 µM
CCOP(C)(=O)C(Cc1c[nH]c2ccccc12)C(=O)O (configuration not stated)	> 100 µM
OC(c1nc2ccccc2s1)(C(F)(F)F)C(F)(F)F	> 100 µM
CCOC(=O)/C(O)=C(/c1n[nH]c(=O)c2ccccc12)[N+](=O)[O-]	> 100 µM
O=C1CC(c2ccc(N3CCOCC3)cc2)(c2ccsc2)NC(=O)C1Sc1ccccc1Cl (configuration not stated)	> 100 µM
CC(=O)OC1CCN(C(=O)c2ccccc2)CC1CC1(c2cc3ccccc3[nH]2)OCCO1 (configuration not stated)	> 100 µM
C=C(C)C1CC=C(C)[C@](O)(C2(O)C[C@H](C(=C)C)CC=C2C)C1 (some centres not stated)	> 100 µM
COc1cc(/C=C2\[C@H]3c4c(c(OC)c(C)c(OC)c4OC)C[C@@H](C(=O)N2Cc2ccccc2)N3C(=O)OCC(C)C)c(OC)c(C)c1OC	> 100 µM

###

# Tested on: EKVX NSCLC
# protocolDescription: NCI tumour cell line growth inhibition, 48 h
readoutKind: GI50

>>> df
                                    compound  readoutkind    result
 0  CN(C)c1ccc(N2Cc3ccccc3OC3=C2C(=O)c2c(O)ccc(O)c2C3=O)cn1         GI50  0.242 µM
 1  C[C@@H]1CN(C(=O)c2ccc(NC(=O)c3cc(O[C@H](C)c4c(Cl)ccc(F)c4Cl)c(N)nn3)cc2)C[C@H](C)N1         GI50   5.66 µM
 2  CC1=C[C@H]2c3c(c(O)c(O)c4oc5c(C)cccc5c(=O)c34)[C@H](c3cc(O)c(O)c4oc5c(C)cccc5c(=O)c34)[C@H]2C(C)(C)C1         GI50   2.34 µM
 3  CC(C)(C)NC(C1=CC(C)(C)c2ccccc2C1=O)c1ccccc1 (centres undefined)         GI50   1.67 µM
 4  CCN(CC)CCCC(C)Nc1cnc(C(=O)Nc2ccc(Cl)c3cccnc23)cn1 (centres undefined)         GI50   3.98 µM
 5  COc1cc2c3c(n(CCCCOC(=O)C(F)(F)F)c(=O)c2cc1OC)-c1cc2c(cc1C3=O)OCO2         GI50  > 100 µM
 6  CC(C)=CCC[C@H](C)[C@@H]1CC[C@]2(C)C3CC[C@]4(OC4(C)C)C(CCCO)[C@]3(C)CC[C@@]12C (some centres undefined)         GI50   20.7 µM
 7  COc1cc(NS(C)(=O)=O)ccc1Nc1c2ccc(Cl)cc2nc2c(OC)cccc12         GI50    6.2 µM
 8  c1ccc(Cn2cc3c(c2-c2ccccc2)CCc2cnoc2-3)cc1         GI50   5.53 µM
 9  C=C1C(=O)O[C@H]2[C@H]1CC/C(COC(=O)CCCCC(=O)OC/C1=C/CC[C@@]3(C)O[C@H]3[C@H]3OC(=O)C(=C)[C@@H]3CC1)=C\CC[C@@]1(C)O[C@@H]21         GI50   2.83 µM
10  COc1cc2nc3sc(C(=O)Nc4ccc(C(=O)OC(C)C)cc4)c(C(=O)Nc4ccc(Cl)cc4C)n3c(=O)c2cc1OC         GI50   22.8 µM
11    COc1cc(C(=O)c2ccc3c(c2)OCO3)cc(OC)c1OC         GI50   3.77 µM
12  N#C/C(=C\c1ccc(-c2ccc(Cl)cc2)o1)C(=O)Nc1ncc(Cc2ccc(Cl)cc2)s1         GI50      2 µM
13  COc1ccc2c(c1)c(-c1ccc(-c3cn(S(=O)(=O)c4ccccc4)c4ccc(OC)cc34)s1)cn2S(=O)(=O)c1ccccc1         GI50  > 100 µM
